// molecules with reported Ki on Glutamate receptor ionotropic, kainate 2 (Rattus norvegicus, UniProt P42260), multi-publication
Sequence (P42260 whole entry): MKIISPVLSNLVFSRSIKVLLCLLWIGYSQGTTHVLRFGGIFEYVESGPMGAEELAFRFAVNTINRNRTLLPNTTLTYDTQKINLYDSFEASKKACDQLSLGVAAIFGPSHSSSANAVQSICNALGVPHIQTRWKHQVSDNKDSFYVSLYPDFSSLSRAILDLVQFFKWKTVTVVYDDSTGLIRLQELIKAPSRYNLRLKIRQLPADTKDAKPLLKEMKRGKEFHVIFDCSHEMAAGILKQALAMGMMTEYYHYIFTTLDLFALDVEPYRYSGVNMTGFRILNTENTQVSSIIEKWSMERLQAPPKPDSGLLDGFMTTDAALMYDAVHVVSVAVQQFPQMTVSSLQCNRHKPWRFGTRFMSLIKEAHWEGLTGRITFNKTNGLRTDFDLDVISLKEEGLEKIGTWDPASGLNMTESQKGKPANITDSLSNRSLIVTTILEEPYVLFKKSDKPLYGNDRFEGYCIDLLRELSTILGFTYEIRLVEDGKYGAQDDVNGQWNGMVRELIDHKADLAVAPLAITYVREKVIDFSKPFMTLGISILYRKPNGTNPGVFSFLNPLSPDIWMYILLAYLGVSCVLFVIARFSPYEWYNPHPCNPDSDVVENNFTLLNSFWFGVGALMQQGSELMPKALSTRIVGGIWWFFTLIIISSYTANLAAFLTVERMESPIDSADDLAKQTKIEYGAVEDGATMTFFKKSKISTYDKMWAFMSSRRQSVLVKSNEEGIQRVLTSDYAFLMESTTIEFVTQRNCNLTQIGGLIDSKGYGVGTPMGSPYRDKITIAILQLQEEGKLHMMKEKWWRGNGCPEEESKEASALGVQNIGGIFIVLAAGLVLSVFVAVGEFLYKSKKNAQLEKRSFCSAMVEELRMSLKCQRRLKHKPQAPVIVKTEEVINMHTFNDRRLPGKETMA

Worked cases, Ki given:
>  <Molecule>
NC(Cc1cc(Cl)c(Cl)c(-c2cccc(O)c2)c1)C(=O)O (racemic)

>  <Ki>
78.1 µM

$$$$
>  <Molecule>
N[C@@H](Cn1c(=O)[nH]c(=O)c2ccsc21)C(=O)O

>  <Ki>
> 1000 µM

$$$$
>  <Molecule>
N[C@H](Cn1ccc(=O)n(Cc2ccccc2C(=O)O)c1=O)C(=O)O

>  <Ki>
> 1000 µM

$$$$

Problem: Determine its reported Ki: N[C@@H](Cn1ccc(=O)n(Cc2ccc(S(=O)(=O)O)cc2)c1=O)C(=O)O
Solution: > 100 µM

Problem: Determine its reported Ki: N[C@@H](C[C@@H](CCC(=O)NO)C(=O)O)C(=O)O
Solution: 3.27 µM

Problem: Determine its reported Ki: N[C@@H](Cn1ccc(=O)n(Cc2nn[nH]n2)c1=O)C(=O)O
Solution: > 100 µM
